TEST_SYSTEM: T1, recombinant human IL-25 protein (human, UniProt Q9H293 33-177)
T1 construct: Bought (Acro, catalog no: IL5-H4221) for ELISA; also called hIL-25; IL-17E
T1 sequence: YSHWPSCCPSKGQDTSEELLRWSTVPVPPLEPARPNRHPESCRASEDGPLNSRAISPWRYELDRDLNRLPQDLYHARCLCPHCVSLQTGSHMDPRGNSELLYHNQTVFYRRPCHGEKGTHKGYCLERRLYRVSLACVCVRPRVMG
PROCEDURE_TEXT: ELISA, IL-25 coated, goat anti-human kappa light chain-HRP detection
Experimental: In this study, the ability of three humanized anti-IL-25 antibodies generated in hIgG1 (IL25Ab6 to Ab8) and hIgG1 YTE formats (IL25Ab9 to Ab11) binding to both human, mouse and cynomolgus IL-25 was evaluated using ELISA. […] After the addition of ABTS (Moss Inc., catalog no: ABTS-1000, Lot no: 03086202) substrate, ELISA plates were read using an ELISA plate reader (Bioteck).
MEASUREMENT_TYPE: pEC50
FYI, pEC50 means -log10 of a concentration in mol per litre.

Exercise: Give the measured pEC50 of IL25Ab8 (antibody, IgG1, V domains shown) VH: QVQLVQSGAEVKKPGASVKVSCKASGYSFTGYTMNWVRQAHGKNLEWMGLINPDNGGTSHKQKFQGRVTMTVDKSISTAYMELSRLRSDDTAVYYCAREGYYGPSPFHHYAMDYWGQGTLVTVSS VL: DIQMTQSPSSLSASVGDRVTITCQASQDISNYLNWYQQKPDGTIKLLIYYTSTLHTGVPSRFSGSGSGTDYTLTISSLQPEDIATYYCQQYSKLPYTFGGGTKLEIK .
Solution: 9.39

Origin of values: patent US20260242458A1
